# Test system: M. aurum
# method.notes: Microdilution broth resazurin assay, MIC
# Type: cell-based, Mycolicibacterium aurum
# study.conditions: Mycolicibacterium aurum, read-out: Antimycobacterial Activity MIC M. aurum
What MIC was measured for each of the following?

# MIC of Cc1cccc(/C=N/n2c(C)nc3cc(Cl)ccc3c2=O)c1 [Compound 47] = ≥ 31.2 µg/mL

# MIC of Cc1nc2cc(Cl)ccc2c(=O)n1Cc1ccc(Cl)c(Cl)c1 [Compound 24] = ≥ 125 µg/mL

# MIC of Cc1nc2ccccc2c(=O)n1Cc1ccc2ccccc2c1 [Compound 8] = 62.5 µg/mL

# MIC of Cc1ccccc1/C=N/n1c(C)nc2cc(Cl)ccc2c1=O [Compound 46] = ≥ 62.5 µg/mL

# MIC of COc1ccc(/C=N/n2c(C)nc3cc(Cl)ccc3c2=O)cc1 [Compound 40] = ≥ 15.6 µg/mL

# MIC of Cc1nc2cc(Cl)ccc2c(=O)n1/N=C/c1ccc(O)cc1 [Compound 37] = ≥ 62.5 µg/mL

# MIC of Cc1nc2cc(Cl)ccc2c(=O)n1/N=C/c1ccc(Cl)cc1 [Compound 51] = ≥ 15.6 µg/mL

# MIC of Cc1nc2cc(Cl)ccc2c(=O)n1/N=C/c1cccc(O)c1 [Compound 36] = ≥ 62.5 µg/mL

# MIC of Cc1nc2cc(Cl)ccc2c(=O)n1/N=C/c1ccncc1 [Compound 31] = ≥ 31.2 µg/mL

# MIC of Cc1nc2cc(Cl)ccc2c(=O)n1/N=C/c1ccccc1O [Compound 35] = ≥ 31.2 µg/mL

# MIC of Cc1nc2cc(Cl)ccc2c(=O)n1/N=C/c1cccc(Br)c1 [Compound 53] = ≥ 31.2 µg/mL

# MIC of Cc1nc2cc(Cl)ccc2c(=O)n1Cc1cccc(C(=O)O)c1 [Compound 12] = ≥ 62.5 µg/mL

# MIC of Cc1nc2cc(Cl)ccc2c(=O)n1/N=C/c1ccc(F)cc1 [Compound 44] = ≥ 31.2 µg/mL

# MIC of Cc1nc2cc(Cl)ccc2c(=O)n1/N=C/c1ccccn1 [Compound 29] = ≥ 31.2 µg/mL

# MIC of Cc1nc2cc(Cl)ccc2c(=O)n1/N=C/c1cccnc1 [Compound 30] = ≥ 31.2 µg/mL

# MIC of Cc1nc2cc(Cl)ccc2c(=O)n1Cc1ccc2ccccc2c1 [Compound 23] = ≥ 125 µg/mL

# MIC of Cc1nc2cc(Cl)ccc2c(=O)n1/N=C/c1cccc(F)c1 [Compound 43] = ≥ 62.5 µg/mL

# MIC of Cc1nc2cc(Cl)ccc2c(=O)n1/N=C/c1ccccc1[N+](=O)[O-] [Compound 26] = ≥ 62.5 µg/mL

# MIC of Cc1nc2cc(Cl)ccc2c(=O)n1/N=C/c1ccc(O)cc1O [Compound 33] = ≥ 62.5 µg/mL

# MIC of Cc1nc2cc(Cl)ccc2c(=O)n1Cc1cccc(O)c1 [Compound 13] = ≥ 62.5 µg/mL

# MIC of Cc1nc2cc(Cl)ccc2c(=O)n1/N=C/c1ccccc1Br [Compound 52] = ≥ 31.2 µg/mL

# MIC of Cc1nc2cc(Cl)ccc2c(=O)n1Cc1ccc(O)cc1 [Compound 14] = 62.5 µg/mL
